Give soluble fraction (log2) for every item shown.
assay: soluble fraction after stress (log2 fold change); higher = more stays soluble; pooled small domains, quantitative proteomics; details: stress: 75 degC;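 further: 20 min heating vs room temperature control held 20 min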

Exam item: Dear colleague, I am looking for the recorded soluble fraction (log2) of the following sequence: `HMDPFAYEVKVTDLAAGSSEIRTVYTEQGSFNIPSGMSGNLKIQVRSASMYDEVEPSDWYTIGEEDIN`
Marked response: 0.0347

Exam item: Could you do the same for `HMSPSSPNQILGQYPKTKNDIILSSGRYGPYLKYNKKNYSLGNNISVEKLSLEEAVKIIDLKDKK` , please?
Marked response: -0.291

Exam item: Same lookup for `HMKHRTQMDIQQLPAIEGKGGFEYKISIIHLSTRIKYSEIHDNYNTTTIAKVYENAIERLPPF` , please.
Marked response: -2.39

Exam item: Continue with `HMDLSQTVQAKALARVNVREGAGTHFKSLGKLKKGELLPVFRVGNSWASIWWKGRVAYVHTDYLRFESA`
Marked response: -1.98

Exam item: Next entry: `HMVTDTGEIEAIIDRVISENPDSVSDFKNGKERALKFLMGQAMKESKGKANPQIVNELLLKKL`
Marked response: -0.00511

Exam item: Another sequence to check: `HMNSTEQQTERFLATLTSLGGNAGNQRLQEALGWQGSTYQRIKQHLLDEGRIRTGRGRGGSVALSEATAT`
Marked response: 0.0863

Exam item: Another: `HMKDLTIRQQQFLNYIKDHLSLTGFPPTRSDIANEMGFKSPNAAEDHLRALARKGAIEIVPGTSRGIRLP`
Marked response: -0.419

Exam item: Next sequence up: `HMNMFDMRKTGARISQLRRAAGLTQAELAEKLGISYQAVSSWERGSNMPDIGKLLDLARILNTTVDALLSA`
Marked response: -1.19

Exam item: Now the sequence `HMKASEMKKGQTIKIDGVLYVIVDFQHVKLSKGGAVYQTKLRNLAAGGIRDIRIRAEEVLEDA`
Marked response: -2.97

Exam item: Another sequence to check: `HMRTVEQFQIRKIYAISNALGISDSRADEDELHVLVSGLTGKDSIKELTYREASVVIERLEELQ`
Marked response: -2.22

Exam item: Same read-out for `HMTRAETPMAFIRAMVEAYTERGLDPNQALRKAQITPSQLKSTNARVTTLQMEWMSETAMREL` ?
Marked response: -0.292

Exam item: And what about the sequence `HMSRVSVDGEEVNFEGEIPDDPSRIYELLMGALSEQSRVVVKFFVDGKDALLDEGFPSRYQMIEAESV` ?
Marked response: -0.0462

Exam item: Now try `HMKTMTTIRKGSRGDTVATLQRKLNLIADGIFGPITDEAVRDFQKSHGLAVDGIVGPKTWAALGVGS` .
Marked response: 0.00482

Exam item: Now try `HMGRLEVDLVVPYDKYEAMNVIRAEGRILKEDHQGDGAHLKIQINETALWKLKRMLGEGYGQ` .
Marked response: -0.13

Exam item: What do we get for `HMGDEPGAGYKWREDVLLRVMSEHGIDESARDDFVRHAVKFDDDDNLYLKKAEIIAAAEAWESSS` ?
Marked response: 0.359

----------
assay: soluble fraction after stress (log2 fold change); higher = more stays soluble; pooled small domains, quantitative proteomics; settings: stress: 75 degC
Would you kindly list soluble fraction (log2) for each of these sequences?
// print number alone

Exam item: Would you kindly share the measured soluble fraction (log2) for `HMGAGDKQAQQASLMQIIALQKEGMALGLVEPKHLYHSFSKMIENAGFKDVQSFAVDPSTQQ` ?
Marked response: -0.0432

Exam item: Quick one: `HMVWPETEAIVTEDFIGKKRSEVQQEGVIFEFFGEGDMVIDQLPRGGVTLNESGRVWIYLGEDTF`
Marked response: -0.78

Exam item: Same read-out for `HMRRELDSEHKRQEILFAAKRLLLAEGYDATSMSRLAKEAGVAPNTLYWYFKDKDELLIAILDELVAE` ?
Marked response: -2.74

Exam item: Continue with `HMNMKVGPVPANVVPANIKAHVSNNYSKYQIVQMMQNDKGYQVKLSNGTDLYYDKDGNILKTS`
Marked response: 0.0129
